Exercise: for every item that follows, state its recorded viability, T/C.
system: 922993-354-T-J3-PDC complex spheroids, viability, % test/control; assay: Anticancer human tumor 922993-354-T-J3-PDC patient-derived endometrial carcinoma cell line growth inhibition [CLK]; settings: second compound 10 µM; first compound 0.0949 µM; stronger effect = lower value;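 also: spheroids exposed to the agents for 7 days before readout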
Please reply with the bare figure in % and do not write the unit itself.

input: Can you share its viability, T/C? I mean this compound: NC(=O)C(=Cn1cnc(-c2cc(C(F)(F)F)cc(C(F)(F)F)c2)n1)c1cncnc1 + CNC(=O)c1ccc(Nc2nc(OC3CCCC3)c3c(-c4ccc5nc(C)oc5c4)c[nH]c3n2)c(OC)c1
output: 20.4

input: Can you share its viability, T/C? I mean this compound: CC(C)CC(NC(=O)C(Cc1ccccc1)NC(=O)c1cnccn1)B(O)O (stereo not drawn) + CNC(=O)c1ccc(Nc2nc(OC3CCCC3)c3c(-c4ccc5nc(C)oc5c4)c[nH]c3n2)c(OC)c1
output: 0.81

input: Can you share its viability, T/C? I mean this compound: CC(C)CC(NC(=O)C(Cc1ccccc1)NC(=O)c1cnccn1)B(O)O (stereo not drawn) + CN1CCN(c2cc(C(=O)Nc3cc4cc(-c5cnn(C)c5)ccc4cn3)ccn2)CC1
output: 2.52
